System: Panc-1 cells
Test summary: Protein expression using high content cell imaging system, and efficacy score
Assay type: cell-based
Assay conditions: 6 hours post treatment; control 1240
A collection of compounds and their measured pRB protein expression
Reported property: pRB protein expression (fluorescence units)

Compound	Reported property	Recorded result
CN1CC[C@@H](c2c(O)cc(O)c3c(=O)cc(-c4ccccc4Cl)oc23)[C@@H]1CO.Cl (relative stereo) [P276-00]	pRB protein expression	1540
CN1CC[C@H](c2c(O)cc(O)c3c(=O)cc(-c4ccccc4Cl)oc23)[C@H](O)C1 [Flavopiridol]	pRB protein expression	1523
Nc1ccn([C@@H]2O[C@H](CO)[C@@H](O)C2(F)F)c(=O)n1 [Gemcitabine, 2′, 2′-difluorodeoxycytidine]	pRB protein expression	1318
CC[C@H](CO)Nc1nc(NCc2ccccc2)c2ncn(C(C)C)c2n1 [Roscovitine]	pRB protein expression	1578
CN1CC[C@@H](c2c(O)cc(O)c3c(=O)cc(-c4ccc(C(F)(F)F)cc4Cl)oc23)[C@@H]1CO.Cl (relative stereo) [P1446A]	pRB protein expression	1489
